SYSTEM TESTED: CaFus1
PROTOCOL DETAILS: SPOT peptide array binding signal intensity (averaged, normalized) (arbitrary units (background-subtracted, floor 0; scale differs between SH3 domains)); higher = stronger binding of the SH3 domain to the peptide
Measured SPOT peptide array binding signal intensity, listed per entry.
VALUE TYPE: SPOT peptide array binding signal intensity

1) DTFLPPPPPPPSNFE | ≤ 0
2) DLPLPDLPPEPPTEL | ≤ 0
3) QNTPPLPPKPKSPHL | ≤ 0
4) YLTRPLPSTPNEDSR | ≤ 0
5) DAPASKPSVPPRNYF | ≤ 0
6) AIPPPVPNRPGGTTN | ≤ 0
7) ATNVPVAPPPPPASL | ≤ 0
